Values were extracted from patent US6812377B2.

- system: recombinant PtCAD protein (Populus tremuloides, UniProt Q9M632)
- Sequence (Q9M632 entry or part of it): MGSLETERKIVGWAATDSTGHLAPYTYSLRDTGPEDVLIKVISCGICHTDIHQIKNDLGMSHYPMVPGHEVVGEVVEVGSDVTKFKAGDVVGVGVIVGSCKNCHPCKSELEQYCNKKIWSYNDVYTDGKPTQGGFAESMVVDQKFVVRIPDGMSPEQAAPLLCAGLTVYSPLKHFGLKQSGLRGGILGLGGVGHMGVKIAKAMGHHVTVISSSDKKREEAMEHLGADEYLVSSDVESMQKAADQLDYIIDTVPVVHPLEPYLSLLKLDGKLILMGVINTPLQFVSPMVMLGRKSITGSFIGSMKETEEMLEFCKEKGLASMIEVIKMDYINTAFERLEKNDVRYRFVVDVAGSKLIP
- procedure details: Kinetic properties of the recombinant PtCAD protein (HPLC-UV/MS)
- Assay type: biochemical
- run parameters: substrate of PtCAD; relative, coniferaldehyde = 100
Vmax/Km strictly under 30% means YES; at 30% or over means NO.

{"compound": "O=C/C=C/c1ccc(O)c(O)c1 [Caffealdehyde]", "category label": "YES"}
{"compound": "COc1cc(/C=C/C=O)cc(O)c1O [5-Hydroxyconiferaldehyde]", "category label": "YES"}
{"compound": "COc1cc(/C=C/C=O)ccc1O [Coniferaldehyde]", "category label": "NO"}
{"compound": "COc1cc(/C=C/C=O)cc(OC)c1O [Sinapaldehyde]", "category label": "YES"}

====

Here the recorded Vmax/Km is given for each entry.
- system: recombinant PtSAD protein (Populus tremuloides, UniProt Q94G59)
- Sequence (Q94G59 entry or part of it): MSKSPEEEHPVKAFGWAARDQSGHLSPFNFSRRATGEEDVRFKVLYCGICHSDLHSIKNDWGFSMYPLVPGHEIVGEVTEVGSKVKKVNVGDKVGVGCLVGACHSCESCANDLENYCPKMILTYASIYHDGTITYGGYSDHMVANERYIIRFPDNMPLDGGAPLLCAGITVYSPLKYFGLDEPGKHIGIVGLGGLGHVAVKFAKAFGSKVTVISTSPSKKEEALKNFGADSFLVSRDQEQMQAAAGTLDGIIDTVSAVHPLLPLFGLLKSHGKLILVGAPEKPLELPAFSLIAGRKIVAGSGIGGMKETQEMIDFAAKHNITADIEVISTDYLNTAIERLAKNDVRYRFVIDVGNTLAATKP
- procedure details: Kinetic properties of the recombinant PtSAD protein (HPLC-UV/MS)
- Assay type: biochemical
- run parameters: substrate of PtSAD; relative, sinapaldehyde = 100

{"molecule": "O=C/C=C/c1ccc(O)c(O)c1", "Vmax/Km (%)": 2.2}
{"molecule": "COc1cc(/C=C/C=O)cc(OC)c1O", "Vmax/Km (%)": 100}
{"molecule": "COc1cc(/C=C/C=O)ccc1O", "Vmax/Km (%)": 26.6}
{"molecule": "O=C/C=C/c1ccc(O)cc1", "Vmax/Km (%)": 27.4}
{"molecule": "COc1cc(/C=C/C=O)cc(O)c1O [5-Hydroxyconiferaldehyde]", "Vmax/Km (%)": 15.5}
